Reference source for all entries: ChEMBL document CHEMBL4351005

# measured target: UniProt:Q14994
# assay remarks: Ratio of Emax to EC50 for human constitutive androstane receptor expressed in HepG2 cells co-expressing CYP2B6
parameter: Ratio (µM⁻¹)

Example compounds with recorded Ratio:
| compound string | measured target | measurement unit | Ratio |
| --- | --- | --- | --- |
| Clc1ccc(-c2nc3sccn3c2CNCCc2c[nH]c3ccccc23)cc1 | UniProt:Q14994 | µM⁻¹ | 1.4 |
| Clc1cccc(-c2nc3sccn3c2CNCCc2ccc(Cl)c(Cl)c2)c1 | UniProt:Q14994 | µM⁻¹ | 3.4 |
| Clc1ccc(CCNCc2c(-c3ccc(Br)cc3)nc3sccn23)cc1Cl | UniProt:Q14994 | µM⁻¹ | 4.6 |
| Clc1ccc(-c2nc3ncccn3c2CNCCc2ccc(Cl)c(Cl)c2)cc1 | UniProt:Q14994 | µM⁻¹ | 3 |
| Clc1ccc(-c2nc3sccn3c2CNC2Cc3ccccc3C2)cc1 | UniProt:Q14994 | µM⁻¹ | 7.4 |
| Clc1ccc(-c2nc3sccn3c2CNCc2ccccc2)cc1 | UniProt:Q14994 | µM⁻¹ | 0.42 |

[P] Clc1ccc(-c2nc3sccn3c2CNCCc2ccc(Cl)c(Cl)c2)cc1
[Q] Cc1cn2c(CNCCc3ccc(Cl)c(Cl)c3)c(-c3ccc(Cl)cc3)nc2s1
Query string: // which entry has the larger Ratio value, P or Q ? Your choice should be expressed through its label.
Result string: P
(P: 7 µM⁻¹, Q: 1.4 µM⁻¹)

[a] Clc1ccc(-c2nc3sccn3c2CNCCc2ccc(Br)cc2)cc1
[b] Cc1ccc(-c2nc3sccn3c2CNCCc2ccc(Cl)c(Cl)c2)cc1
Query string: // which entry has the larger Ratio value, a or b ? Your choice should be expressed through its label.
Result string: b
(b: 6.1 µM⁻¹, a: 1.1 µM⁻¹)

###

# measured target: Nuclear receptor subfamily 1 group I member 3 (Homo sapiens, UniProt Q14994)
# Sequence (Q14994 whole entry): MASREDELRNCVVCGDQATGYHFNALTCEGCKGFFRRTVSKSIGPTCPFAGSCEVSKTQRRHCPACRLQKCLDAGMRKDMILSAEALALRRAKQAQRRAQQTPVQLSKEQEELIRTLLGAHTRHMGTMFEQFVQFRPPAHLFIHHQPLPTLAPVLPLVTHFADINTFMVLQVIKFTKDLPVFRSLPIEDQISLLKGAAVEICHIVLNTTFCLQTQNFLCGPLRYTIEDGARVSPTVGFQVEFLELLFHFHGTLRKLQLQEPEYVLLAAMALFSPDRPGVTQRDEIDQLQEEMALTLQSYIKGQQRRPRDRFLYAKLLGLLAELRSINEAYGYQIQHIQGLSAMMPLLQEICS
# assay remarks: Ratio of Emax to EC50 for human constitutive androstane receptor expressed in HepG2 cells co-expressing CYP2B6
parameter: Ratio (µM⁻¹)

Example compounds with recorded Ratio:
| compound string | Ratio [µM⁻¹] |
| --- | --- |
| c1ccc(CCNCc2c(-c3ccc4ccccc4c3)nc3sccn23)cc1 | 1.9 |
| Clc1ccc(-c2nc3sccn3c2CNCCc2cccc(Cl)c2)cc1 | 1.1 |
| N#Cc1ccc(-c2nc3sccn3c2CNCCc2ccc(Cl)c(Cl)c2)cc1 | 1.9 |
| Oc1ccc(CCNCc2c(-c3ccc(Cl)cc3)nc3sccn23)cc1 | 0.36 |
| O=C(NCCc1ccc(Cl)c(Cl)c1)c1c(-c2ccc(Cl)cc2)nc2sccn12 | 2.4 |

[a] CN(CCc1ccc(Cl)c(Cl)c1)Cc1c(-c2ccc(Cl)cc2)nc2sccn12
[b] Fc1ccc(CCNCc2c(-c3ccc(Cl)cc3)nc3sccn23)cc1
[c] Clc1ccc(-c2nc3sccn3c2/C=N/CCc2ccc(Cl)c(Cl)c2)cc1
[d] Clc1ccc(-c2nc3sccn3c2COCCc2ccc(Cl)c(Cl)c2)cc1
Query string: Reorder the items by Ratio, least to greatest. In your reply, arrange the labels in the requested order.
Result string: c, b, a, d

###

# measured target: Nuclear receptor subfamily 1 group I member 3 (Homo sapiens)
# assay remarks: Ratio of Emax to EC50 for human constitutive androstane receptor expressed in HepG2 cells co-expressing CYP2B6
parameter: Ratio (µM⁻¹)

Example molecules with recorded Ratio:
| compound string | endpoint value |
| --- | --- |
| Clc1ccc(-c2nc3sccn3c2CNc2ccc3ccccc3c2)cc1 | 0.22 |
| Clc1ccc(CCNCc2c(-c3ccc4ccccc4c3)nc3sccn23)cc1Cl | 2.4 |
| c1ccc2c(c1)CC(NCc1c(-c3ccc4ccccc4c3)nc3sccn13)C2 | 2.4 |

[A] Fc1ccc(-c2nc3sccn3c2CNCCc2ccc(Cl)c(Cl)c2)cc1
[B] c1ccc2c(c1)CC(NCc1c(-c3ccc4ccccc4c3)nc3occn13)C2
[C] Clc1ccc(-c2nc3sccn3c2CNCCc2ccccc2)cc1
Query string: Order the records by Ratio, with each subsequent value no larger than the one before. In your reply, arrange the labels in the requested order.
Result string: A, B, C
(A: 18 µM⁻¹, B: 7.4 µM⁻¹, C: 3.9 µM⁻¹)
